Consider the following pIC50 data for MAT2A (Homo sapiens, UniProt P31153), collected from several reports.
pIC50: −log10 of the molar value.

givenSmiles | reportedResult
CCOc1c(-c2ccc(Cl)cc2)c(=O)n(-c2ccc3nn(C)cc3c2)c2[nH]ncc12 | 7.82

Query: Tell me the measured pIC50 of C#CC1(Nc2nc(=O)n(-c3cccnc3C)c3cc(C(F)(F)F)cc(OC)c23)CC1 , please.
Reply: > 7.30

Query: Another compound: CCOc1c(-c2ccc(=O)[nH]c2)c(=O)n(-c2ccc3nn(C)cc3c2)c2[nH]ncc12
Reply: 7.34

Query: Another compound: O=c1c(-c2ccc(Cl)cc2)c(OCC(F)(F)F)c2cn[nH]c2n1-c1ccc2nn(C3COC3)cc2c1
Reply: 7.79

Query: Another compound: C#CC1(Nc2nc(=O)n(-c3cccnc3)c3cc(C(F)(F)F)cc(OC)c23)CC1
Reply: > 7.30

Query: Another compound: C#CCCCNc1nc(=O)n(-c2cccnc2)c2cc(C(F)(F)F)ccc12
Reply: > 7.30

Query: Another compound: C#CCNc1nc(=O)n(-c2c(C)ccnc2C)c2cc(C(F)(F)F)ccc12
Reply: > 7.30

Query: Another compound: C#CCNc1nc(=O)n(-c2cccnc2)c2cc(C(F)(F)F)ncc12
Reply: 6.30 to 7.00

Query: Another compound: C#CC1(Nc2nc(=O)n(-c3cccnc3C)c3nc(C(F)(F)F)cc(OC)c23)CC1
Reply: 7.00 to 7.30
